Provide the recorded inhibition for the entries that follow.
- Test system: intestinal alkaline phosphatase [Mus musculus]
- TEST_DETAILS: mouse intestinal phosphatase enzyme inhibition – biochemical, luminescence, uHTS, primary screen (AID 2806);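 note: plate controls were DMSO with enzyme for no effect and no enzyme wells for full effect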
- CONDITION_DETAILS: purified mouse IAP, CDP-Star luminescence, 30 min; at 10 µM; stronger effect = higher value
Hit rate of the full screen: of about 330,000 compounds, about 660 (0.2%) were called active. For the sample, actives were picked, then their nearest neighbours and some compounds at random.

query: Item "C=CCSc1nc(N)cc(=O)[nH]1" has what recorded inhibition?
result: 4.4% (inactive)

query: Item "Cc1cc(NC(=O)/C=C/C(=O)N(CC(=O)NC2CCCC2)c2ccc(F)cc2)no1" has what recorded inhibition?
result: 5.2% (inactive)

query: Item "COc1ccc(OC)c(-c2csc(NC(=O)C3=NNC(=O)CC3)n2)c1" has what recorded inhibition?
result: 11.3% (inactive)

query: Item "CCc1ccc(N(CC)c2ncnc3nc[nH]c23)cc1" has what recorded inhibition?
result: 7.5% (inactive)

query: Item Cc1cccc(OCC(O)Cn2c(N3CCCCC3)nc3c2c(=O)[nH]c(=O)n3C)c1 (stereo not given) has what recorded inhibition?
result: -1.1% (inactive)

query: Item Fc1ccccc1/C=C1\CCCC2=C1Nc1ncnn1C2c1ccccc1F (stereo not given) has what recorded inhibition?
result: 0% (inactive)

query: Item "CCOC(=O)/C(N=Nc1cc(C(=O)O)cc(C(=O)O)c1)=C(\O)CCl" has what recorded inhibition?
result: -0.2% (inactive)

query: Item "CCN(c1ccccc1)S(=O)(=O)c1cc2c(cc1C)n(C)c(=O)c(=O)n2C" has what recorded inhibition?
result: -8% (inactive)

query: Item "S=c1[nH]nc2c3c4c(sc3ncn12)CCCC4" has what recorded inhibition?
result: 12.3% (inactive)

query: Item "Nc1ccc2nc3c(=O)[nH]c(=S)[nH]c3nc2c1" has what recorded inhibition?
result: 70.9% (active)

query: Item "O=C1C=C(c2cc(C(F)(F)F)cc(C(F)(F)F)c2)C[C@@H](c2ccc3c(c2)OCO3)C1" has what recorded inhibition?
result: 13.5% (inactive)

query: Item CCC(C)(C(=O)NC1CCCCC1)N(C)C(=O)c1ccc2c(c1)OCO2 (stereo not given) has what recorded inhibition?
result: 2.8% (inactive)

query: Item "O=C(CCCN=C1NS(=O)(=O)c2ccccc21)OCC(=O)c1ccc(F)c(F)c1" has what recorded inhibition?
result: -12.2% (inactive)

query: Item "COc1ccc(OC)c(Nc2nc(-c3ccc(O)c(O)c3)cs2)c1" has what recorded inhibition?
result: 68.7% (active)

query: Item "CCC(=O)Nc1ccc(-c2ccc(N3CCCCC3)nn2)cc1" has what recorded inhibition?
result: 6.7% (inactive)

query: Item "CCc1ccc(CN(C)Cc2nc(Cc3ccccc3)no2)nc1" has what recorded inhibition?
result: -1.4% (inactive)

query: Item "O=C(c1cc2ccccc2o1)N1CCN(S(=O)(=O)c2ccc(Cl)s2)CC1" has what recorded inhibition?
result: -5.4% (inactive)

query: Item "C=CCNC(=S)NNC(=O)COc1c(Cl)cc(Cl)cc1Cl" has what recorded inhibition?
result: 2.2% (inactive)

query: Item "NC(=O)c1ccc(Nc2ccc3c(c2)CCC3)c([N+](=O)[O-])c1" has what recorded inhibition?
result: 11.2% (inactive)

query: Item "CC(=O)Nc1ccc(S(=O)(=O)Nc2cc(C)cn(Cc3ccc(C)cc3)c2=O)cc1" has what recorded inhibition?
result: 4.9% (inactive)
